U251 CNS: reported GI50 for various compounds.

# Compound, GI50
rows = [
    ("O=C1NC(=NCCc2cccc(F)c2)S/C1=C\\c1ccc2ncccc2c1", "1.46 µM"),
    ("COc1cc(/C=N\\NC(=O)CN2CCN(c3cc4c(cc3F)c(=O)c(C(=O)N/N=C/c3cc(OC)c(OC)c(OC)c3)cn4C3CC3)CC2)cc(OC)c1OC", "0.328 µM"),
    ("Cc1ccc(NC(=O)Nc2ccc(-c3cccnc3)cc2N2CCC(CO)CC2)cc1", "2.02 µM"),
    ("Cc1ccc(CN2CCC(C(=O)Nc3ccc(-c4cc5ccccc5[nH]4)cc3)CC2)o1", "21 µM"),
    ("FC(F)(F)c1cccc(Nc2nc(-c3ccccc3)nc3ncccc23)c1", "3.52 µM"),
    ("COC([CH2][Hg][n]1cnc2c1c(=O)n(C)c(=O)n2C)CN1C(=O)c2ccccc2S1(=O)=O (stereo not given)", "> 100 µM"),
    ("CCOC1Oc2ccccc2C(=O)/C1=C/Nc1ccc(C(C)=O)cc1 (stereo not given)", "23.9 µM"),
    ("Nc1c(C(=O)c2cccc(CCS(N)(=O)=O)c2)cnn1-c1ccc(F)cc1", "> 25 µM"),
    ("O=C(Nc1ccc(F)cc1)Nc1ccc(Cl)c([N+](=O)[O-])c1", "3.19 µM"),
    ("O=C(CCN1CCCCC1)C(=Cc1ccccc1)C(=O)CCN1CCCCC1", "3.04 µM"),
]

----------
Below, each of the compounds is paired with its reported TGI value.
- Tested on: NCI-H23 lung
- Experimental Details: NCI tumour cell line growth inhibition, 48 h

# Compound, Subject Of Test, TGI
records = [
    ("O=C1CC(NC(=O)C(F)(F)F)c2c(Br)sc(N3CCNCC3)c21 (stereo not given)", "NCI-H23 lung", "> 100 µM"),
    ("Cc1cc(NS(=O)(=O)c2ccc(Nc3c4ccccc4nc4c(C(=O)N5CCN(CCOS(C)(=O)=O)CC5)cccc34)cc2)no1", "NCI-H23 lung", "> 100 µM"),
    ("COc1cc2c(c3oc4c(O)cccc4c(=O)c13)CC(C(C)(O)CO)O2 (stereo not given)", "NCI-H23 lung", "> 100 µM"),
    ("COC(=O)c1ccccc1CC1Cc2ccc3c(c2C1=O)CCCC3 (stereo not given)", "NCI-H23 lung", "> 100 µM"),
    ("Nc1c2c(nc3ccccc13)-c1ccccc1CC2", "NCI-H23 lung", "27.2 µM"),
]

----------
- Tested on: MDA-MB-231 breast
- Experimental Details: NCI tumour cell line growth inhibition, 48 h; in the data active means GI50 below about 0.43 µM; inactive means the rest
Outcome codes: TRUE for active, FALSE for inactive

# Compound, Subject Of Test, Cat
rows = [
    ("Cc1ccc2c(C)c3c(ccc4ccccc43)c[n+]2c1", "MDA-MB-231 breast", "FALSE"),
    ("Cc1nc2sccn2c1-c1csc(Nc2ccccc2Cl)n1", "MDA-MB-231 breast", "FALSE"),
    ("Cc1ccnc2c1ccc1c(C)ccnc12", "MDA-MB-231 breast", "FALSE"),
    ("CN(C)c1ccc(/C=C\\C2=[N+](C)c3ccccc3C2(C)C)cc1", "MDA-MB-231 breast", "FALSE"),
    ("COc1cc2c(cc1OCCCCN1CCN(CC(=O)Nc3ccc(Cl)cc3C(=O)c3ccccc3Cl)CC1)N=CC1CCCN1C2=O (centres undefined)", "MDA-MB-231 breast", "TRUE"),
    ("Nc1ccccc1C#C/C=C\\C#Cc1ccccc1OC(F)(F)F", "MDA-MB-231 breast", "FALSE"),
    ("OC1CSSC1Cn1cnc2c(Nc3ccc(OCc4cccc(F)c4)c(Cl)c3)ncnc21 (centres undefined)", "MDA-MB-231 breast", "FALSE"),
    ("Cc1ccc(CN2CCC(C(=O)Nc3ccc(-c4cc5ccccc5[nH]4)cc3)CC2)o1", "MDA-MB-231 breast", "FALSE"),
    ("Cn1cc(C2=C(c3c4n(c5ccccc35)CCCCC4)C(=O)NC2=O)c2ccccc21", "MDA-MB-231 breast", "FALSE"),
    ("COc1cc(/C=N\\NC(=O)CN2CCN(c3cc4c(cc3F)c(=O)c(C(=O)N/N=C/c3cc(OC)c(OC)c(OC)c3)cn4C3CC3)CC2)cc(OC)c1OC", "MDA-MB-231 breast", "TRUE"),
    ("CCOC1Oc2ccccc2C(=O)/C1=C/Nc1ccc(C(C)=O)cc1 (centres undefined)", "MDA-MB-231 breast", "FALSE"),
    ("C=CC(=O)Nc1cc(Nc2ncc(C(=O)OC(C)C)c(-c3cn(C)c4ccccc34)n2)c(OC)cc1N(C)CCN(C)C", "MDA-MB-231 breast", "FALSE"),
    ("FC(F)(F)c1cccc(Nc2nc(-c3ccccc3)nc3ncccc23)c1", "MDA-MB-231 breast", "FALSE"),
    ("CC1CCc2nc[nH]c(=O)c21 (centres undefined)", "MDA-MB-231 breast", "FALSE"),
]

----------
// reported TGI for each item listed
- System: IGROV1 ovarian
- Experimental Details: NCI tumour cell line growth inhibition, 48 h

# Compound String, TGI
measured = [
    ("C1CN(c2nc3c(nnc4nc(N5CCOCC5)sc43)s2)CCO1", "> 100 µM"),
    ("CCOC(=O)/C=C/CC(C)(C)CCOC(C)=O", "> 10 µM"),
    ("O=C1/C(=C/c2ccc(O)c(O)c2)CCC/C1=C\\c1ccc(O)c(O)c1", "15.9 µM"),
    ("CCC[CH2][Sn]([CH2]CCC)([S]c1cccc2cccnc12)[S]c1cccc2cccnc12", "0.53 µM"),
    ("COc1cc(/C=N\\NC(=O)CN2CCN(c3cc4c(cc3F)c(=O)c(C(=O)N/N=C/c3cc(OC)c(OC)c(OC)c3)cn4C3CC3)CC2)cc(OC)c1OC", "11.8 µM"),
]

----------
- System: SF-268 CNS
- Experimental Details: NCI tumour cell line growth inhibition, 48 h
Measured Property: TGI

# Compound, Subject Of Test, Result
measured = [
    ("CCOC(=O)CCC1(C(=O)OCC)CCCCC1=O (stereo not drawn)", "SF-268 CNS", "> 100 µM"),
    ("CC(C)(C)OC(=O)N[C@H]1CCN(C2CCCCC2)C1=O", "SF-268 CNS", "> 100 µM"),
    ("COc1ccc(N/N=C2\\CCOc3ccc(C)cc3C2=O)cc1", "SF-268 CNS", "> 100 µM"),
    ("O=C1C=CC(=O)c2c1ccc1c3ccccc3n(CCCCCCCCCCCCn3c4ccccc4c4ccc5c(c43)C(=O)C=CC5=O)c21", "SF-268 CNS", "> 100 µM"),
    ("C=CCN1C[C@H](C)N([C@H](c2ccc(C(=O)NC(CC)CC)cc2)c2cccc(OC)c2)C[C@H]1C", "SF-268 CNS", "> 100 µM"),
    ("COc1cc2c(cc1OCCCCN1CCN(CC(=O)Nc3ccc(Cl)cc3C(=O)c3ccccc3Cl)CC1)N=CC1CCCN1C2=O (stereo not drawn)", "SF-268 CNS", "0.711 µM"),
    ("COc1cc(C2c3cc4c(cc3OC(N3CCOCC3)C2C)OCO4)ccc1O (stereo not drawn)", "SF-268 CNS", "> 100 µM"),
    ("O=C(Nc1ccc(-n2ccc3c(NC(=O)c4ccccc4)nccc32)cc1)c1ccc(Cl)c(C(F)(F)F)c1", "SF-268 CNS", "11.9 µM"),
    ("CN1CCN(C2=NCCO2)CC1", "SF-268 CNS", "> 100 µM"),
    ("CCCCCCCCCCCCCCNC(=O)CCC(NC(=O)c1ccc(N(C)Cc2cnc3nc(N)nc(N)c3n2)cc1)C(=O)NCCCCCCCCCCCCCC (stereo not drawn)", "SF-268 CNS", "22.4 µM"),
    ("O=C(O)CCNCCCNCCC(=O)O", "SF-268 CNS", "> 100 µM"),
    ("COC(=O)/C(C#N)=C1\\NC(=O)c2ccccc21", "SF-268 CNS", "> 100 µM"),
    ("CCCCCCCCCCCC(=O)OCCOCCOCCOCCOCCOCc1ccccc1", "SF-268 CNS", "> 100 µM"),
    ("COC(CCC[N+](C)(C)C)CC[N+](C)(C)C (stereo not drawn)", "SF-268 CNS", "> 100 µM"),
    ("NS(=O)(=O)c1ccc2c(c1)OCCOCCOCCOCCO2", "SF-268 CNS", "> 100 µM"),
    ("O=C1/C(=C/c2ccccc2)N=C2Sc3c(nc[nH]c3=O)N12", "SF-268 CNS", "> 100 µM"),
    ("Cc1n[nH]c(=O)n1/N=C/c1ccc(Cl)cc1", "SF-268 CNS", "> 100 µM"),
    ("COc1cc2c(c(OC)c1OC)-c1ccc(NNC(N)=S)c(=O)cc1[C@@H](NC(C)=O)CC2", "SF-268 CNS", "> 100 µM"),
    ("Cc1ccc(NC(=O)Nc2ccc(-c3cccnc3)cc2N2CCC(CO)CC2)cc1", "SF-268 CNS", "> 100 µM"),
    ("CN(C)C(=S)N=C(Nc1ccccc1)Nc1ccccc1", "SF-268 CNS", "> 100 µM"),
    ("COC(=O)/C=C1\\S/C(=N\\NC(=O)c2cc3ccc2/C=C\\c2ccc(cc2)/C=C\\3)N(c2ccccc2)C1=O", "SF-268 CNS", "11.2 µM"),
    ("O=C(Nc1ccccc1)c1c(O)[nH]c(=S)[nH]c1=O", "SF-268 CNS", "125 µM"),
    ("CC(C)=CCc1c2c(c3occ(-c4ccc(O)cc4)c(=O)c3c1O)CC(C(C)(C)O)O2 (stereo not drawn)", "SF-268 CNS", "48.5 µM"),
    ("CN(C)c1ccc(/C=C\\C2=[N+](C)c3ccccc3C2(C)C)cc1", "SF-268 CNS", "34 µM"),
    ("CCOC(=O)C(C)(C)Oc1ccc2c(-c3ccccc3)cc(=O)oc2c1", "SF-268 CNS", "> 100 µM"),
    ("COC(=O)CC[N+]1=CCC(c2ccccc2)(c2ccccc2)O1", "SF-268 CNS", "> 100 µM"),
    ("c1ccc(-c2nc(-c3ccccc3SSc3ccccc3-c3nc(-c4ccccc4)nn3-c3ccccc3)n(-c3ccccc3)n2)cc1", "SF-268 CNS", "> 100 µM"),
    ("CC1(C)N=[N+]([O-])C1(C)C", "SF-268 CNS", "> 100 µM"),
    ("Cc1cn2c(/C=N/N=C(N)N)c(-c3cccc([N+](=O)[O-])c3)nc2s1", "SF-268 CNS", "2.58 µM"),
    ("Nc1nc(SCCc2ccccc2)c2[nH]cnc2n1", "SF-268 CNS", "> 100 µM"),
    ("Cc1nc2sccn2c1-c1csc(Nc2ccccc2Cl)n1", "SF-268 CNS", "86.5 µM"),
    ("COC(=O)c1ccccc1CC1Cc2ccc3c(c2C1=O)CCCC3 (stereo not drawn)", "SF-268 CNS", "> 100 µM"),
    ("Cc1nc2c(ccc3ncccc32)[nH]1", "SF-268 CNS", "> 100 µM"),
    ("COC([CH2][Hg][n]1cnc2c1c(=O)n(C)c(=O)n2C)CN1C(=O)c2ccccc2S1(=O)=O (stereo not drawn)", "SF-268 CNS", "> 100 µM"),
    ("C=CC1(C)CCC2C(=CCC3C2(C)CC(O)C(O)C3(C)COC2OC(C(=O)O)C(O)C(O)C2O)C1 (stereo not drawn) (tested in a mixture with another compound)", "SF-268 CNS", "> 100 µM"),
    ("COC(=O)c1ccccc1NC(=O)C(=O)Cc1nc2c3c(ccc2[nH]c1=O)C(=O)c1ccccc1C3=O", "SF-268 CNS", "67.9 µM"),
    ("S=C1Nc2ccccc2SC1c1ccccc1 (stereo not drawn)", "SF-268 CNS", "> 100 µM"),
    ("CNS(=O)(=O)NNS(=O)(=O)c1ccccc1", "SF-268 CNS", "> 100 µM"),
    ("COc1cccc(C2c3cc4c(cc3OC(C)(N3CCCC3)C2C)OCO4)c1O (stereo not drawn)", "SF-268 CNS", "> 72.5 µM"),
    ("CN1C(=O)C2CCC(=O)N2c2cccnc21 (stereo not drawn)", "SF-268 CNS", "> 100 µM"),
    ("OC1CSSC1Cn1cnc2c(Nc3ccc(OCc4cccc(F)c4)c(Cl)c3)ncnc21 (stereo not drawn)", "SF-268 CNS", "2.9 µM"),
    ("Cc1cnc(NCCCN(C)C)c2c1[nH]c1ccc3cc(O)ccc3c12", "SF-268 CNS", "2.07 µM"),
    ("Cn1cc(C2=C(c3c4n(c5ccccc35)CCCCC4)C(=O)NC2=O)c2ccccc21", "SF-268 CNS", "> 25 µM"),
]
